For each entry below, report its viability value.
System: SB.mhdgc-1
Experiment: viability at highest tested concentration (MAXR) relative to DMSO; higher = less cytotoxic
Conditions: SB.mhdgc-1 (hereditary c.1380delA CDH1 gastric cancer)
Where a name gives a salt, the structure may show the parent alone.
Quick reminder: number only, in %, skip the unit.

Exam item: Param item = CC(C)(C)NC(=O)[C@@H]1CN(Cc2cccnc2)CCN1C[C@@H](O)C[C@@H](Cc1ccccc1)C(=O)N[C@H]1c2ccccc2C[C@H]1O.O=S(=O)(O)O [Indinavir] (top concentration 46.0829 µM) ; retrieve measured viability.
Marked response: 37.1

Exam item: Can you look up the measured viability of CN(C)CCN1C(=O)c2cccc3cc(N)cc(c23)C1=O [Amonafide] (top concentration 46.0829 µM) for me?
Marked response: 66.7

Exam item: Given CN1CCN(CC1)C2=C3OCN(C)N4\C=C(C(O)=O)/C(=O)C(=C34)C=C2F [Marbofloxacin] (top concentration 46.0829 µM) , state its recorded viability.
Marked response: 121

Exam item: Data request, read-out viability, for Cc1ccc([N+](=O)[O-])cc1[S+](=O)([O-])N(C)/N=C/c1cnc2ccc(Br)cn12 [PIK-75] (top concentration 46.0829 µM)
Marked response: 30

Exam item: Which viability value belongs to S=P(N1CC1)(N1CC1)N1CC1 [ThioTEPA] (top concentration 46.0829 µM) ?
Marked response: 47.4

Exam item: Any idea what viability was measured for CC(C)=CCC/C(C)=C/CC/C(C)=C/CSc1ccccc1C(=O)O [Salirasib] (top concentration 46.0829 µM) ?
Marked response: 51.4

Exam item: Name the recorded viability for CN(C)CCCN\C1=C\2C(=O)N(C)C(=O)\N=C2N(C)C3=C1C=CC=C3 (top concentration 46.0829 µM) .
Marked response: 55.1

Exam item: Endpoint output: viability of CCN(CC)CCOC1=CC=C(NC2=NC=C3\C=C(/C(=O)N(C)C3=N2)C4=C(Cl)C=CC=C4Cl)C=C1 (top concentration 46.0829 µM) . Value?
Marked response: 3.62

Exam item: So what does the record say about viability for c1cc(CN2CCCNCCNCCCNCC2)ccc1CN1CCCNCCNCCCNCC1 [Plerixafor hydrochloride] (top concentration 46.0829 µM) ?
Marked response: 109

Exam item: Given C/C=C1\NC(=O)[C@H]2CSSCC/C=C\[C@H](CC(=O)N[C@H](C(C)C)C(=O)N2)OC(=O)[C@H](C(C)C)NC1=O [Romidepsin] (top concentration 46.0829 µM) , state its recorded viability.
Marked response: 35.1

Exam item: Could you share which viability value was measured for CC[S+](=O)([O-])c1cccc(-c2cc(C(=O)NC3CCN(C)CC3)c(C)c3[nH]c4ncc(C)cc4c23)c1 [TAK-901] (top concentration 46.0829 µM) ?
Marked response: 44.2

Exam item: Could you share which viability value was measured for CC(=O)[C@]1(O)Cc2c(O)c3c(c(O)c2[C@@H](O[C@H]2C[C@H](N)[C@H](O)[C@H](C)O2)C1)C(=O)c1ccccc1C3=O [Idarubicin hydrochloride] (top concentration 46.0829 µM) ?
Marked response: 2.79

Exam item: Item CC(C)C[C@H](NC(=O)[C@H](CCc1ccccc1)NC(=O)CN1CCOCC1)C(=O)N[C@@H](Cc1ccccc1)C(=O)N[C@@H](CC(C)C)C(=O)[C@@]1(C)CO1 [Carfilzomib] (top concentration 46.0829 µM) has what recorded viability?
Marked response: 3.86

Exam item: Which viability is listed for Cc1cnc(Nc2cccc(CN3CCOCC3)c2)nc1Nc1cccc([S+](=O)([O-])NC(C)(C)C)c1 [TG-89] (top concentration 46.0829 µM) ?
Marked response: 6.02

Exam item: Look up viability: Cn1cc(-c2ccncc2)c(-c2ccc(OCc3ccc4ccccc4n3)cc2)n1 [MP-10] (top concentration 46.0829 µM)
Marked response: 84.7

Exam item: viability for CCNC(=O)C[C@@H]1\N=C(C2=CC=C(Cl)C=C2)/C3=C(C=CC(=C3)OC)[N]4C(=NN=C14)C [I-BET762] (top concentration 46.0829 µM) ?
Marked response: 84.1

Exam item: Looking for the measured viability of Cc1ccc(O)c(C(CCN(C(C)C)C(C)C)c2ccccc2)c1.Cl (stereo not drawn) [Tolterodine tartrate] (top concentration 46.0829 µM) , can you help?
Marked response: 83.9

Exam item: Given the compound COc1ccc2c(c[n+](C)c3c4cc5c(cc4ccc23)OCO5)c1OC [Chelerythrine chloride] (top concentration 46.0829 µM) , what is its reported viability?
Marked response: 2.88

Exam item: What value of viability has been recorded for this entry: Cc1cc(Nc2cc(N3CCN(C)CC3)nc(/C=C/c3ccccc3)n2)n[nH]1 (top concentration 92.1659 µM)
Marked response: 2.71

Exam item: Quick one: viability of Nc1nc(OCc2ccccc2)c2nc[nH]c2n1 [O6-Benzylguanine] (top concentration 46.0829 µM) ?
Marked response: 102

Exam item: I would be grateful if you could share the reported viability for CC1(C)CC(=O)c2c(C(F)(F)F)nn(-c3ccc(C(N)=O)c(NC4CCC(O)CC4)c3)c2C1 (stereo not drawn) [SNX-2112] (top concentration 46.0829 µM) .
Marked response: 44.6

Exam item: Would you mind telling me what viability value was observed for O=c1cc(O)c(Cl)c[nH]1 [Gimeracil] (top concentration 46.0829 µM) ?
Marked response: 90.1

Exam item: Given Clc1ccc(C(Cn2ccnc2)OCc2ccc(Sc3ccccc3)cc2)c(Cl)c1 (stereo not drawn) [Fenticonazole nitrate] (top concentration 46.0829 µM) , state its recorded viability.
Marked response: 22.8

* * *

Test system: SB.msgc-1
Assay: AC50 for growth inhibition (viability) (log10 M); higher = less potent
Details: SB.msgc-1 (sporadic gastric cancer)
Give AC50 for growth inhibition (log10 M) for every item shown.

Exam item: API: value(readout= AC50 for growth inhibition (log10 M), system= SB.msgc-1, query= N[C@@H](Cc1ccc(N(CCCl)CCCl)cc1)C(=O)O [Melphalan] )
Marked response: -5.83

Exam item: Lookup: AC50 for growth inhibition (log10 M) / SB.msgc-1 / CC(C)c1cnn2c(NCc3ccccc3)cc(NCCCCCCN)nc12 [BS-181]
Marked response: -4.73

Exam item: Any idea what AC50 for growth inhibition (log10 M) came out for NC(CO)(CO)CCc1ccc(Sc2cccc(OCc3ccccc3)c2)cc1Cl [KRP 203] on SB.msgc-1?
Marked response: -4.58

Exam item: Item C[N]1C=C(C2=C1C=CC=C2)\C3=C(\C(=O)NC3=O)C4=C5CC(CN)CC[N]5C6=C4C=CC=C6 (centres undefined) [Ro-31-8425] with SB.msgc-1 - AC50 for growth inhibition (log10 M)?
Marked response: -4.78

* * *

Test system: SB.mhdgc-1
Assay: viability at highest tested concentration (MAXR) relative to DMSO; higher = less cytotoxic
Settings: SB.mhdgc-1 (hereditary c.1380delA CDH1 gastric cancer)
Could you please mark 1 (yes) for values of viability below 80% and 0 (no) for values at or above it?

Exam item: Take the molecule CNCC(O)c1ccc(O)cc1 (stereo unspecified) [Synephrine] (top concentration 46.0829 µM) and say whether its viability is less than 80%.
Marked response: 0 (no)

Exam item: I'd appreciate it if you could check whether CC1CNc2c(cccc2[S+](=O)([O-])N[C@@H](CCCNC(=N)N)C(=O)N2CC[C@@H](C)C[C@@H]2C(=O)O)C1 (stereo partly specified) [Argatroban] (top concentration 46.0829 µM) has viability smaller than 80%.
Marked response: 1 (yes)

Exam item: Please determine if CC[C@]12\C=C/CN3CC[C@]4([C@@H](N(C)C5=CC(=C(C=C45)[C@]6(C[C@H]7C[C@H](CN(C7)CC8=C6[NH]C9=C8C=CC=C9)C(C)(F)F)C(=O)OC)OC)[C@](O)([C@@H]1OC(C)=O)C(=O)OC)[C@H]23 [Vinflunine] (top concentration 46.0829 µM) is below 80% in terms of viability.
Marked response: 1 (yes)

Exam item: Confirm or reject: viability of CCOC(=O)C/1=C(O)/C(=O)N(CC2=CC=CC=C2)C1 [EBPC] (top concentration 46.0829 µM) lies strictly below 80%
Marked response: 0 (no)

Exam item: Lab note: viability threshold 80%. Does this molecule come in strictly under it? O=C(O)c1ccccc1C(=O)Nc1ccc(-c2ccccc2)cc1 [Kartogenin] (top concentration 46.0829 µM)
Marked response: 0 (no)

* * *

Test system: SB.msgc-1
Assay: area under the dose-response curve of % viability (trapezoidal, 11 doses) (% viability x log10 concentration); higher = less cytotoxic
Conditions: SB.msgc-1 (sporadic gastric cancer)
Counter-ions that a name gives are not always drawn.
measurement-name: area under the dose-response curve
Give your answer as a number; write no unit.

Exam item: For the record C#Cc1cccc(Nc2ncnc3cc(OCCOC)c(OCCOC)cc23)c1 [Erlotinib hydrochloride] (top concentration 46.0829 µM) , what value of area under the dose-response curve is listed for SB.msgc-1?
Marked response: 388

Exam item: Quick check: area under the dose-response curve on SB.msgc-1, item C[C@@H]1O[C@@H](O[C@H]\2CC[C@]\3(C)[C@@H]4CC[C@]5(C)[C@@H](CC[C@@]5(O)[C@H]4CCC3=C2)C/6=C/OC(=O)/C=C6)[C@H](O)[C@H](O)[C@@H]1O [Proscillaridin] (top concentration 46.0829 µM) ?
Marked response: 314

Exam item: Under SB.msgc-1: area under the dose-response curve value of CCCOc1ccc2[nH]c(NC(=O)OC)nc2c1 [Oxibendazole] (top concentration 46.0829 µM) ?
Marked response: 297

Exam item: Return area under the dose-response curve measured with SB.msgc-1 given this molecule: C[C@H]1CCC/C=C/C2C[C@H](O)C[C@H]2[C@H](O)/C=C/C(=O)O1 (stereo partly drawn) [Cyanein] (top concentration 46.0829 µM)
Marked response: 129

Exam item: Kindly state the measured area under the dose-response curve obtained for Cc1cc(/C=c2/sc3nc4ccccc4n3c2=O)c(C)n1-c1ccccc1 [ITX3] (top concentration 46.0829 µM) with SB.msgc-1.
Marked response: 504

Exam item: State its area under the dose-response curve on SB.msgc-1: COc1ccc(N(C(=O)Oc2c(C)cccc2C)c2ccnc(Nc3ccc(N4CCN(C)CC4)cc3)n2)c(OC)c1 (top concentration 46.0829 µM)
Marked response: 417

Exam item: Could you share what area under the dose-response curve was measured for CC[C@]1(O)C[C@H]2CN(CCC3=C([NH]C4=C3C=CC=C4)[C@@](C2)(C(=O)OC)C5=CC6=C(C=C5OC)N(C=O)[C@H]7[C@](O)([C@H](OC(C)=O)[C@]8(CC)\C=C/C[N@@]9CC[C@]67[C@H]89)C(=O)OC)C1 [Vincristine sulfate] (top concentration 46.0829 µM) , tested on SB.msgc-1?
Marked response: 251

Exam item: Which area under the dose-response curve is reported with SB.msgc-1 for this entry: CC(C)c1ccccc1Cc1cc(C(=O)Nc2ccc([S+](=O)([O-])c3ccccc3C(C)(C)C)cc2)c(O)c(O)c1O [TW-37] (top concentration 46.0829 µM) ?
Marked response: 481

Exam item: Any idea what area under the dose-response curve came out for COc1nc(-c2ccc3c(c2)OCO3)n(-c2ccc(NC(=O)CSc3ccccc3)cc2)n1 [Secin H3] (top concentration 46.0829 µM) on SB.msgc-1?
Marked response: 586

Exam item: Recall the recorded area under the dose-response curve for CN(CC#C)C/C1=C/C2=CC=CC=C2OC3=CC=CC=C13 [Omigapil] (top concentration 46.0829 µM) with SB.msgc-1 and state it.
Marked response: 476

Exam item: Write down the reported area under the dose-response curve of CC(C)(C)c1nc(-c2cccc(N[S+](=O)([O-])c3c(F)cccc3F)c2F)c(-c2ccnc(N)n2)s1 [Dabrafenib] (top concentration 46.0829 µM) , test system: SB.msgc-1.
Marked response: 484

Exam item: # returns recorded area under the dose-response curve (system: SB.msgc-1) for CCc1cnn2c(NCc3ccc[n+]([O-])c3)cc(N3CCCC[C@H]3CCO)nc12 [Dinaciclib] (top concentration 46.0829 µM)
Marked response: 299

Exam item: # get_value(readout= area under the dose-response curve, system= SB.msgc-1) for CCOC(=O)N1CCN(/[N+]([O-])=N/Oc2cc(O/N=[N+](\[O-])N3CCN(C(=O)OCC)CC3)c([N+](=O)[O-])cc2[N+](=O)[O-])CC1 [Double JS-K] (top concentration 46.0829 µM)
Marked response: 511

Exam item: Field: area under the dose-response curve (SB.msgc-1). Entry: CN(Cc1cc(Br)cc(Br)c1N)C1CCCCC1 [Bromhexine hydrochloride] (top concentration 46.0829 µM)
Marked response: 575

Exam item: SB.msgc-1 / area under the dose-response curve / CC1=C(CC/C(C)=C/CCC2=CCC(C3=CC(=O)OC3O)OC2O)C(C)(C)CCC1 (stereo not drawn) [Manoalide] (top concentration 46.0829 µM) : value?
Marked response: 536

Exam item: Enter reported area under the dose-response curve observed with SB.msgc-1 for CC1(C)Cc2c(-c3ccccc3)c(-c3ccc(Cl)cc3)c(CC(=O)O)n2C1 [Licofelone] (top concentration 46.0829 µM)
Marked response: 496

Exam item: Item: CCN(CC)C(=S)SSC(=S)N(CC)CC [Disulfiram] (top concentration 46.0829 µM) Test system: SB.msgc-1 Read-out: area under the dose-response curve Value: ?
Marked response: 360

Exam item: Request body: readout area under the dose-response curve, system SB.msgc-1, query CCCCOc1ccc(CC(=O)NO)cc1 [Bufexamac] (top concentration 46.0829 µM) . Return the value.
Marked response: 494

Exam item: Could you share what area under the dose-response curve was measured for NC(=O)c1ccc2[nH]c(-c3ccc(Oc4ccc(Cl)cc4)cc3)nc2c1 (top concentration 46.0829 µM) , tested on SB.msgc-1?
Marked response: 485

Exam item: Could you share what area under the dose-response curve was measured for CCCCOCCOc1nc(-c2ccc(C(=O)O)c(F)c2)sc1C (top concentration 46.0829 µM) , tested on SB.msgc-1?
Marked response: 489

Exam item: SB.msgc-1 / area under the dose-response curve / CNC(=O)c1nn(C)c2c1C(C)(C)Cc1cnc(Nc3ccc(N4CCN(C)CC4)cc3)nc1-2 [Milciclib] (top concentration 46.0829 µM) : value?
Marked response: 445

Exam item: Write down the reported area under the dose-response curve of NCC/1=C/NC(=S)N1[C@H]2CCC3=C(F)C=C(F)C=C3C2 [Nepicastat hydrochloride] (top concentration 46.0829 µM) , test system: SB.msgc-1.
Marked response: 495

Exam item: What is its area under the dose-response curve for SB.msgc-1? Entry: C[C@H]1COC/2=C1/C(=O)C(=O)C3=C4CCCC(C)(C)C4=CC=C23 [Cryptotanshinone] (top concentration 46.0829 µM)
Marked response: 484
